Experiment: qHTS assay to identify small molecule agonists of the progesterone receptor (PR) signaling pathway - cell viability counter screen (AID 1346799); further: potency means the concentration at half of the fitted maximal effect; nearly all actives have a fitted effect of over 45% in size
Conditions: PR-UAS-bla HEK293T viability, CellTiter-Glo luminescence, 16 h; series mostly up to 92.4 µM
Inconclusive results are not listed. Activity calls are given as the source filed them. The call rests on the fitted dose curve.
Metric name: Potency

Answered examples (3):
{"Compound": "CC(C)(O)c1ccccc1", "Potency": "58.6 µM (active)"}
{"Compound": "CCCCCCOC(=O)c1ccccc1O", "Potency": "30.6 µM (active)"}
{"Compound": "O=C(O)C(O)[C@H](O)[C@@H](O)[C@H](O)[C@H](O)CO (some centres undefined)", "Potency": "49.1 µM (active)"}

stdin: # get_value(readout='Potency', item= OCCCCCCO )
stdout: 19.6 µM (active)
